Tested on: YE3965
assayName: yeast strain panel proliferation effects – secondary panel, OD600, 26S proteasome disassembly project, profiling panel (AID 2125)
settings: S. cerevisiae strain panel, growth OD600, 6-8 h
Peptide text beside a SMILES is read from it. * marks the point of attachment. Cbz = O=C(OCc1ccccc1)*
measuredEndpoint: pEC50
One number for each entry, as −log10 of the molar value.

Q. # query: pEC50 of entry CC(C)C[C@@H](C=O)NC(=O)[C@H](CC(C)C)NC(=O)[C@H](CC(C)C)NC(=O)OCc1ccccc1 (Cbz-Leu-Leu-Leu-aldehyde)
A. 5.98
